Target: T1, Placenta Growth Factor (PlGF), human (human, UniProt P49763 21-149)
T1 chain: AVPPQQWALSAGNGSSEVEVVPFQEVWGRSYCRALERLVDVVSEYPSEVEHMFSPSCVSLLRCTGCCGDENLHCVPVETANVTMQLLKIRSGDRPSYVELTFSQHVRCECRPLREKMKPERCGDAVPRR
Assay: ELISA
# Lookup of reported EC50 keyed by entry
Kindly answer with a numeric value in nM, unit omitted.

binder | unit_descriptor | EC50
HC 6/SLC 3 (antibody) chain 1: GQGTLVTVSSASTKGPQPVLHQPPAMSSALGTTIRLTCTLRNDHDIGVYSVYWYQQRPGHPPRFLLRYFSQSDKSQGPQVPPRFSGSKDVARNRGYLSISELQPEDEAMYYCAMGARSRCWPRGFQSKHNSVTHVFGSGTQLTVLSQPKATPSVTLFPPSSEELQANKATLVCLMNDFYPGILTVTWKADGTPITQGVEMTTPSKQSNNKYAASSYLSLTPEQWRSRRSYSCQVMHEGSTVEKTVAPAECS chain 2: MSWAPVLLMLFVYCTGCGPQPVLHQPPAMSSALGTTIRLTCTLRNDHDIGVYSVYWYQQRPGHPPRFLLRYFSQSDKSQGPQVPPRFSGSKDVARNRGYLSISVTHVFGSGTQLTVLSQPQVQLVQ | nM | 0.16
HC 10/SLC 7 (antibody) chain 1: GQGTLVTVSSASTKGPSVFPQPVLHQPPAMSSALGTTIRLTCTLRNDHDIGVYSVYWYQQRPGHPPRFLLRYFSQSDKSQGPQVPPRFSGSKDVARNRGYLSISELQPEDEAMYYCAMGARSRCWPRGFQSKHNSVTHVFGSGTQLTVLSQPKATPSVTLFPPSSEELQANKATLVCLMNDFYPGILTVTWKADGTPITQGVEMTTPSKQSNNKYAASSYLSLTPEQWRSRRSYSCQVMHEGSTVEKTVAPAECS chain 2: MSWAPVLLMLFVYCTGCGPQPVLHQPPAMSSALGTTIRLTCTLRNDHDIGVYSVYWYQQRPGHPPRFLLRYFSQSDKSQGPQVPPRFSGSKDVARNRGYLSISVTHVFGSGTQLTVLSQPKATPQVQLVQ | nM | 0.056
HC 3/SLC 6 (antibody) chain 1: GQGTLVTVSSASTQPVLHQPPAMSSALGTTIRLTCTLRNDHDIGVYSVYWYQQRPGHPPRFLLRYFSQSDKSQGPQVPPRFSGSKDVARNRGYLSISELQPEDEAMYYCAMGARSRCWPRGFQSKHNSVTHVFGSGTQLTVLSQPKATPSVTLFPPSSEELQANKATLVCLMNDFYPGILTVTWKADGTPITQGVEMTTPSKQSNNKYAASSYLSLTPEQWRSRRSYSCQVMHEGSTVEKTVAPAECS chain 2: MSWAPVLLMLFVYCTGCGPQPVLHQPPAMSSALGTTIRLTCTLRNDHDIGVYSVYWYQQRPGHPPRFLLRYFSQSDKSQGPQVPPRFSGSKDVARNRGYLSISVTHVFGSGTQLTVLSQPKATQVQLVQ | nM | 0.163

stdin: Recorded EC50 of HC 7/SLC 3 (antibody) chain 1: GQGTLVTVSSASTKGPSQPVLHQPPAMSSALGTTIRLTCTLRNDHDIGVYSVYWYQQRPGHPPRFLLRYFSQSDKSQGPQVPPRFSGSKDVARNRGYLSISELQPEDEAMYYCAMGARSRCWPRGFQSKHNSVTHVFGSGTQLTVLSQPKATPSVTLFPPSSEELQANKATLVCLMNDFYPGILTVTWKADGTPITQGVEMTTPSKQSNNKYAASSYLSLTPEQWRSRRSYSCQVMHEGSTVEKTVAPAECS chain 2: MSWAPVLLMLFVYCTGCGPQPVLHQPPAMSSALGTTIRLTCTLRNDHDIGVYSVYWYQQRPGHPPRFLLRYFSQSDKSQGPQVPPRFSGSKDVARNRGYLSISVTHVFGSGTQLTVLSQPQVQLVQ , please.
stdout: 0.182

Recorded values, source patent US20150045540A1.
